Would you mind telling me the reported fluorescence staining intensity (geometric mean) of each entry?
- study-target: T1, human alpha4beta7 (human, UniProt P13612 34-1032; P26010 20-798)
- T1 construct: whole, on cells; also called a4b7; wt
- T1 sequence (P13612 34-1032, chain 1 of 2): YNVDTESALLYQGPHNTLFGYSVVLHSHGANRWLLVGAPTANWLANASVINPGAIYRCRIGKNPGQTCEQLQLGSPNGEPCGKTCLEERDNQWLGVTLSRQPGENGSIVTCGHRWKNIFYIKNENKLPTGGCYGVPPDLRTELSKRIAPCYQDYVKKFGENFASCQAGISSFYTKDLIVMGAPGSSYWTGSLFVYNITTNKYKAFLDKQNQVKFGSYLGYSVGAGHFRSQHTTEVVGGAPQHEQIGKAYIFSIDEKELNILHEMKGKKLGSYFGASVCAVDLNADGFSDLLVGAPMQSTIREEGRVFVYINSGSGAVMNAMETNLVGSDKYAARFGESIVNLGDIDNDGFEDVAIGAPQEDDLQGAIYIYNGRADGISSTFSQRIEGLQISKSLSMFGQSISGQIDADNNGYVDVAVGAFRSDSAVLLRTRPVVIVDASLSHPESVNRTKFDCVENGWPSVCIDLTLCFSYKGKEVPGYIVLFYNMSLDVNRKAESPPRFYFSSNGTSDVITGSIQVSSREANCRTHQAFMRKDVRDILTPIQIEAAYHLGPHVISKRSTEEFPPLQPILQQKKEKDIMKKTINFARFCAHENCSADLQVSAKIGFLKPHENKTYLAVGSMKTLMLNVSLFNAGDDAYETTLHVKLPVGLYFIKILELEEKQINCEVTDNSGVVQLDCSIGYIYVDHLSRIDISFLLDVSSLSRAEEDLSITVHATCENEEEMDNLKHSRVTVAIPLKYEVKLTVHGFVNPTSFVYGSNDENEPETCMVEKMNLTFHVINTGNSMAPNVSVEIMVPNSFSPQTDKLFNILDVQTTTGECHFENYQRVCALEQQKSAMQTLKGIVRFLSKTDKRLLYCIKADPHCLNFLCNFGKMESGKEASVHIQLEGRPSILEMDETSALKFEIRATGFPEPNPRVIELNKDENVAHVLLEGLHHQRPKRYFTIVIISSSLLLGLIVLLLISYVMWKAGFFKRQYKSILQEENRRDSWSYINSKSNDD
- T1 sequence (P26010 20-798, chain 2 of 2): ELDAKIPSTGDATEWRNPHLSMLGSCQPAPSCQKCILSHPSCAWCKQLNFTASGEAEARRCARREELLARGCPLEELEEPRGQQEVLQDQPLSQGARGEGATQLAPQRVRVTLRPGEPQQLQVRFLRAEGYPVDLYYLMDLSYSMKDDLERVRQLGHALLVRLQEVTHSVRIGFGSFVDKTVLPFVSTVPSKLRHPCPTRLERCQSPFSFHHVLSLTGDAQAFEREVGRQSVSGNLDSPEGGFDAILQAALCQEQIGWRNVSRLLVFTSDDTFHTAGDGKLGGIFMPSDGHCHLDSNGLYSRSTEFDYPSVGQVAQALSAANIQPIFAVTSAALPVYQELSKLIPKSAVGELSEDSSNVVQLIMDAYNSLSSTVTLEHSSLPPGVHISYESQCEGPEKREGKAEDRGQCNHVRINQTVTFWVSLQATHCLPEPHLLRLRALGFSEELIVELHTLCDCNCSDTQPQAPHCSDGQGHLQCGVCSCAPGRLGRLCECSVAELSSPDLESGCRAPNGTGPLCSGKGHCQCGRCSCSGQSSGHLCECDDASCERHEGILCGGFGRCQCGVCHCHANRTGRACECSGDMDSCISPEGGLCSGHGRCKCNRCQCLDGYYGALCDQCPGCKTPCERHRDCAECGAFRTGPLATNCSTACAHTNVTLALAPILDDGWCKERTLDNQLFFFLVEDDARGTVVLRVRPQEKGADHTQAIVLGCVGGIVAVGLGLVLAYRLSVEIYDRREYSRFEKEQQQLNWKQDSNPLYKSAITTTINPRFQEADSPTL
- assay: FACS on transfected 293 cells, 1 microG/ml, PE anti-human IgG
Enter the number alone.

(Q) Value lookup for fluorescence staining intensity (geometric mean); key = 26H3 (antibody, V domains shown, Fully human monoclonal from XenoMouse (human IgG2 or IgG4); kappa light chain; also called 26H3K; 26H3H) VH: EVQLVQSGAEVKKPGESLKISCKGSGYSFTGYWIGWVRQMPGKGLEWMGIIYPYDSDTRYSPSFQGQVTISADKSINTAYLQWSSLKASDTAMFYCASHRLWLGEFPGPLNIWGQGTMVTVSS VL: DIQMTQSPSSLSASVGDRVTITCQASQDISNYLNWYQQKPGKAPKLLIYDASNLETGVPSRFSGSGSGTDFTFTINSLQPEDIATYFCQQYDNLPCSFGQGTKLEIK
(A) 93

(Q) For the binder shown here, 25C9 (antibody, V domains shown, Fully human monoclonal from XenoMouse (human IgG2 or IgG4); kappa light chain; also called 25C9k; 25C9K) VH: QVQLVESGGGLVKPGGSLRLSCAASGFTFNDYYMSWIRQAPGKGLEWVSYISSSGSAIHYADSVKGRFTISRDNAKNSLYLQMNSLRAEDTAVYYCAREYSSGWAYFDYWGQGTLVTVSS VL: DIQMTQSPSSVSASVGDRVTITCRASQDISSWLAWYQRKPGKAPKVLIYSASSLQSGVPSRFSGSGSGTDFTLTISSLQPEDFATYYCQQADSFPWTFGQGTKVEIK , give the reported fluorescence staining intensity (geometric mean).
(A) 96

(Q) Given the entry 17C8 (antibody, V domains shown, Fully human monoclonal from XenoMouse (human IgG2 or IgG4); kappa light chain; also called 17C8K; 17C8H) VH: QVQLVESGGGLVKPGGSLRLSCAASGFTFSDYYMSWIRQAPGKGLEWLSYISNSGSAMYYADSVKGRFTISRDNARNSLYLQMNSLRAEDTAVYYCAREYSSGWFFFESWGQGTLVTVSS VL: EIVMTQSPATLSVSPGERATLSCRASQSVSSNLVWYQQKPGQAPRLLIYGASTRATGIPARFSGSGSGTDFTLTISSLQSEDFAVYYCQQYDDWPPLTFGGGTTVEIK , report its measured fluorescence staining intensity (geometric mean).
(A) 93

(Q) So what does the record say about fluorescence staining intensity (geometric mean) for 27G8 (antibody, V domains shown, Fully human monoclonal from XenoMouse (human IgG2 or IgG4); lambda light chain; PE-conjugated in the cynomolgus study; also called 27G8L; 27G8H) VH: EVQLVESGGGLVQPGGSLRLSCAASGFTFSSYWMSWVRQASGKGLEWVANIKQDGSEKYYVDSVKGRFTISRDNAKNSLYLQMNSLRAEDTAVYYCAREGGYDWNYADYYGMDVWGQGTTVTVSS VL: QSVLTQPPSVSEAPRQRVTISCSGSNSNIGNNPVNWYQLFPGRAPKLLIYHDDLLPSGVSDRFSGSRSGTSASLAISGLQSEDETDYYCTAWDDSLNGWVFGGGTKLTVL ?
(A) 102

(Q) // returns reported fluorescence staining intensity (geometric mean) for input 18A11 (antibody, V domains shown, Fully human monoclonal from XenoMouse (human IgG2 or IgG4); kappa light chain; also called 18A11K; 18A11H) VH: QVQLVQSGAEVKKPGASVKVSCKVSGYTLSDLSIHWVRQAPGKGLEWMGGFDPQDGETIYAQKFQGRVTMTEDTSTDTAYMELSSLKSEDTAVYYCATGSSSSWFDPWGQGTLVTVSS VL: DIQMTQSPSSVSASVGDRVTITCRASQGISSWLAWYQQKPGKAPKLLIYGASNLESGVPSRFSGSGSGTDFTLTISSLQPEDFANYYCQQANSFPWTFGQGTKVEIK
(A) 92

(Q) Data request, read-out fluorescence staining intensity (geometric mean), for 3A5 (antibody, V domains shown, Fully human monoclonal from XenoMouse (human IgG2 or IgG4); kappa light chain; also called 3A5K; 3A5H) VH: QVQLVQSGAEVKKPGASVKVSCKVSGYTLNDLSMHWVRQAPGKGLEWMGGFDPAEGKIISAQKFQDRVTMTDDTSTDTAYMELSSLRSEDSAVYYCATLDFSSWFDPWGQGTLVTVSS VL: DIQMTQSPSSVSASVGDRVTITCRASQGVISWLAWYQQKPGMAPKLLIYAASILQSGVPSRFSGSGSGTDFTLTISSLQPEDFATYYCQQANSFPWTFGQGTNVEIK
(A) 124

Reference source for all entries: patent US20100254975A1
